Tested on: Abutilon theophrasti
Assay: Post-emergence herbicidal effect
Assay type: in vivo
Details: 80 g/ha, assessed visually after about 3 weeks vs untreated controls
endpoint: post-emergence efficacy ABUTH (%)
Kindly provide the numeric value in % only, without the unit symbol.

Cc1cc2c(s1)CCCC2Nc1ncc(-c2cccc(C(F)(F)F)c2)c(N)n1 (racemic) ... 60
CC(=NO)c1cnc(NC2CCCc3sc(C)cc32)nc1N (racemic) [compound 341] ... 80
Cc1cc2c(s1)CCCC2Nc1ncc(SC(F)(F)F)c(C)n1 (racemic) ... 80

Query: Notebook entry, Abutilon theophrasti assay: post-emergence efficacy ABUTH of C=C(c1cnc(NC2CCCc3sc(C)cc32)nc1N)C(F)(F)F (racemic) = ?
Response: 80

Query: Write down the reported post-emergence efficacy ABUTH of Cc1cc2c(s1)CCCC2Nc1nc(N)c(Br)c(C(F)F)n1 (racemic) , test system: Abutilon theophrasti.
Response: 90

----------
Tested on: Abutilon theophrasti
Assay: Pre-emergence herbicidal effect
Format: in vivo
Conditions: Dosage 320 g/ha, scored visually after 3 weeks
endpoint: ABUTH pre-emergence efficacy (herbicidal activity) (%)
Could you give me the number in %? Just the number is fine.

Observe how each entry below is paired with its result.
Cc1cc2c(o1)CCCC2Nc1ncc(C(F)(F)F)c(N)n1 (racemic) ... 80
Cc1cc2c(s1)C(Nc1ncc3c(n1)CCCC3=O)CCC2 (racemic) ... 100
Cc1cc2c(s1)CCCC2Nc1ncc(C#N)c(N)n1 (centres unmarked) [compound 282] ... 80

Query: Param readout= ABUTH pre-emergence efficacy (herbicidal activity); system= Abutilon theophrasti; entry= Cc1cc2c(s1)CCCC2Nc1nc(N)c(Br)c(C(F)F)n1 (racemic) [compound 314] ; returns value.
Response: 60

Query: Reported ABUTH pre-emergence efficacy (herbicidal activity) for Abutilon theophrasti, given CS(=O)(=O)c1cnc(NC2CCCc3sc(Cl)cc32)nc1N (racemic) ?
Response: 100

Query: Lab request: please report ABUTH pre-emergence efficacy (herbicidal activity) under test system Abutilon theophrasti for Cc1cc2c(s1)CCC[C@H]2Nc1ncc(I)c(N)n1
Response: 100

Query: Look up ABUTH pre-emergence efficacy (herbicidal activity) with Abutilon theophrasti for this molecule: Nc1nc(N[C@@H]2CCCc3sccc32)ncc1C(F)(F)F
Response: 80

Query: Requested read-out ABUTH pre-emergence efficacy (herbicidal activity), target or system Abutilon theophrasti, entry CCOC(=O)c1cnc(NC2CCCc3sc(C)cc32)nc1C (racemic)
Response: 70

Query: Notebook: pull reported ABUTH pre-emergence efficacy (herbicidal activity) for Abutilon theophrasti, entry CC(=NO)c1cnc(NC2CCCc3sc(C)cc32)nc1N (racemic) [compound 341]
Response: 70

Query: Please tell me: ABUTH pre-emergence efficacy (herbicidal activity) of Cc1cc2c(s1)CCCC2Nc1nc(N)c(-c2cccc(F)c2)c(C(F)F)n1 (racemic) , system Abutilon theophrasti?
Response: 80

Query: Form field: ABUTH pre-emergence efficacy (herbicidal activity) recorded for Cc1cc2c(s1)C(Nc1ncc(C(F)(F)F)c(N)n1)CCC2 (racemic) with Abutilon theophrasti (enter value)
Response: 100

Query: I'm curious: which ABUTH pre-emergence efficacy (herbicidal activity) was measured for Cc1cc2c(o1)CCCC2Nc1ncc(S(C)(=O)=O)c(N)n1 (racemic) tested on Abutilon theophrasti?
Response: 90

Query: Give recorded ABUTH pre-emergence efficacy (herbicidal activity) with Abutilon theophrasti for the following molecule: Cc1cc2c(s1)C(Nc1ncc(S(C)(=O)=O)c(N)n1)CCC2 (racemic)
Response: 100

Query: ABUTH pre-emergence efficacy (herbicidal activity) of CS(=O)(=O)c1cnc(NC2CCCc3ccsc32)nc1N (racemic) on Abutilon theophrasti?
Response: 100

Query: Observed ABUTH pre-emergence efficacy (herbicidal activity) on Abutilon theophrasti for Cc1cc2c(s1)CCCC2Nc1nc(N)c(S(C)(=O)=O)c(Cl)n1 (racemic) , please.
Response: 40

Query: Abutilon theophrasti / ABUTH pre-emergence efficacy (herbicidal activity) / Nc1nc(NC2CCc3sc(Cl)cc32)ncc1C(F)(F)F (racemic) : value?
Response: 100

Query: Checklist item: ABUTH pre-emergence efficacy (herbicidal activity) tested on Abutilon theophrasti, entry CC(=O)c1cnc(NC2CCCc3sc(C)cc32)nc1N (centres unmarked) [compound 283] , value?
Response: 100
